B1: TPR 5TU (parent)
chain: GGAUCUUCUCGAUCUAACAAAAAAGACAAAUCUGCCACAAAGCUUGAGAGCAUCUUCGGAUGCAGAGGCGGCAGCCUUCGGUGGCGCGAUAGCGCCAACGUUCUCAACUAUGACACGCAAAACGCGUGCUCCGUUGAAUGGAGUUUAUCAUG

- Variants of: B1
- Experimental details: polymerase ribozyme fitness, log enrichment relative to wild type (log ratio); higher = more active; in vitro selection for triplet polymerase activity
Fewer inactive variants are shown than the library holds.
Endpoint name: polymerase ribozyme fitness (log ratio)

Mutation list	Reported measurement
A29U C54G U56G A60G	≤ -4.2
A121G U144C	-0.191
G59C C87A U101C G141U A147U	≤ -4.2
U56G A60C G81A G94U A106G	-3.84
C54U C85G A91U	≤ -4.2
C10G G68C G83U A107C	≤ -4.2
A37C C76A	-3.34
G46C C93U	-2.47
C5A A28G G34C G74A U82A G86A C93A A97C	≤ -4.2
U13G U78G G86U G140A G141A	≤ -4.2
A22G A24U G59C C96G A98U	0.453
A3C U15G A24G G117A U151A	≤ -4.2
A3U C18U G50A G68A C76A G92C C93U	≤ -4.2
U7G A37G C38U G59U A60U G94U C108U	≤ -4.2
A16C C57A G94A C116U G124A A142U	-3.92
U7A G50A U78A C79G G86A C87A C99G A115U G141U	≤ -4.2
C18U C54G G59A C93A G136U	≤ -4.2
A40C U44A U102C U139A A142G A147C U148A A150G	≤ -4.2
G84A A91U	≤ -4.2
U44C G86U C103G G140A U148A	≤ -4.2
A73G G94A U148C	-3.66
G59U A97C	-0.238
A89G A110U U151A	-3.58
G25U A49C G88U A97G	≤ -4.2
U77G C79G G83C	≤ -4.2
A28G G42C C43G U56C C85G G92A G124U A150U	≤ -4.2
A49G U53C C114U	-2.54
C8A C114G A142C	≤ -4.2
A30G U82G A122G U146G	-4.18
A39U U61G C85U C93U U134A	≤ -4.2
U56A A73C G84U U127C	≤ -4.2
A29U C38U G86A	≤ -4.2
C32A U77G G88A G126C G143U	≤ -4.2
